# tgt: pooled human IgG
measurement-name: Enzyme Activity Endpoint Assay (purified): Fc (ng/µL)

[[record]]
protein = "PRT-607 (protein) MQITSVWTYGVKPLTPEQFRYNNEDVIHAPYLEHQGWYDITKAFDGKDNLLCGAATAGNMLHWWFDQNKTEIEAYLSKHPEKQKIIFNNQELFDLKAAIDTKDSQTNSQLFNYFRDKAFPNLSARQLGVMPDLVLDMFINGYYLNVFKTQSTDVNRPYQDKDKRGGIFDAVFTRGDQTTLLTARHDLKNKGLNDISTIIKQELTEGRALALSHTYANVSISHVINLWGADFNAEGNLEAIYVTDSDANASIGMKKYFVGINAHGHVAISAKKIEGENIGAQVLGLFTLSSGKDIWQKLSLEHHHHHH"
readout_units = "ng/µL"
measured_value = 470

